Below: a set of entries, each annotated with reported exchange rate vs Pos peptide.
- tested_target: T1, HLA-A*24:02 (human, biotinylated heavy chain)
- T1 construct: Conditional HLA class I complex first loaded with a UV-labile peptide, exchanged for the test peptide after UV; also called conditional HLA class I complex
- test_name: UV peptide exchange + HLA class I ELISA

{"binder": "FFKRAAEGF [P77 9-mer peptide (AR-V3 splice variant)]", "unit_abbreviation": "%", "exchange rate vs Pos peptide": 1.7}
{"binder": "GVLRRLLCR [P37 9-mer peptide (TSTD1-F11R fusion)]", "unit_abbreviation": "%", "exchange rate vs Pos peptide": -0.1}
{"binder": "NMVENGCYL [P59 9-mer peptide (FOXA1 (F254V))]", "unit_abbreviation": "%", "exchange rate vs Pos peptide": -0.5}

Data credit: patent US20200222478A1
